Target entity: T1, soluble human FcRn (shFcRn) (human, UniProt P55899 24-297; P61769 21-119)
T1 construct: Biotinylated for the ELISA, amine-coupled to a CM5 chip for SPR; also called biotinylated shFcRn
T1 sequence (P55899 24-297 limits assumed, chain 1 of 2): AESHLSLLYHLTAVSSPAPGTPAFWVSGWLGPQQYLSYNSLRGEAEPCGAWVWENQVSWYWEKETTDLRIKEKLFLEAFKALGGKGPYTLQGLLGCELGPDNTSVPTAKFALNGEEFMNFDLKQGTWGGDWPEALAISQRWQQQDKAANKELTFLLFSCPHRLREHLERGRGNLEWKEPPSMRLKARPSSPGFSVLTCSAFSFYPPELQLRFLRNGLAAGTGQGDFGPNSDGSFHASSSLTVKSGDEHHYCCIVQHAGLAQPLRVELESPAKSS
T1 sequence (P61769 21-119 limits assumed, chain 2 of 2): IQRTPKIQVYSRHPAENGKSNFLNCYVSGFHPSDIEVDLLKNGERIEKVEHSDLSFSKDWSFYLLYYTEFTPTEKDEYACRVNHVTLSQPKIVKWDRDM
Experiment description: IgG competition ELISA
pIC50: −log10 of the molar value. Bridge positions count the residues as written; N and C are the ends. Square brackets hold non-standard residues; d marks the D form. Ends that are not written are not given here. NMeL = CN[C@@H](CC(C)C)C(=O)O; Pen = CC(C)(S)[C@H](N)C(=O)O; Sar = CNCC(=O)O
Value type: pIC50

| Binder | Recorded number |
| --- | --- |
| RF[Pen]TGHF[dL][Sar][NMeL]YPC-NH2 (disulfide 3-13; N-terminus assumed; SMILES CC(C)C[C@H]1NC(=O)[C@H](Cc2ccccc2)NC(=O)[C@H](Cc2c[nH]cn2)NC(=O)CNC(=O)[C@H]([C@@H](C)O)NC(=O)[C@@H](NC(=O)[C@H](Cc2ccccc2)NC(=O)[C@@H](N)CCCNC(=N)N)C(C)(C)SSC[C@@H](C(N)=O)NC(=O)[C@@H]2CCCN2C(=O)[C@H](Cc2ccc(O)cc2)NC(=O)[C@H](CC(C)C)N(C)C(=O)CN(C)C1=O) [Peptide No. 219] | 5.40 |
